This section presents sequences with their documented apparent KD of MS2 coat protein values.
System: MS2 coat protein
assayComment: apparent KD of MS2 coat protein; designed switch direction (-1 OFF switch, 1 ON switch): 1; higher = weaker reporter binding
testParameters: input ligand: FMN 200 uM
The answer is to be given in nM; state only the numeric part.

{"residueCodes": "GGGAGAGACGGAGGAUAUGGAGGGAGAUAGAGACUAGAAGGUUGGACAUGAGAAUCGAACAUGAGGAUCACCCAUGUUGGGAGG [iteri-2] (Eterna round: R96, puzzle: Same State NG 1)", "subjectOfTest": "MS2 coat protein", "apparent KD of MS2 coat protein [nM]": 61.5}
{"residueCodes": "GAGAGAGGGUGAGGAUAUGCAGUAAUAAUGAUAGCAGAAGGCACAGACAUGAGGAUCACCCAUGUGGGAAUAAUCCAGAGAGAG [Parity 2 - Jieux - Same State NG 1] (Eterna round: R96, puzzle: Same State NG 1)", "subjectOfTest": "MS2 coat protein", "apparent KD of MS2 coat protein [nM]": 291}
{"residueCodes": "GGAUGAUUAACAGGAUAUCAUUUGUAAAUUGGUUGAGAAGGGUUAAUGAUUUACACGACCUGUUACAUGAGGAUCACCCAUGUU [SameState NG1 #2] (Eterna round: R96, puzzle: Same State NG 1)", "subjectOfTest": "MS2 coat protein", "apparent KD of MS2 coat protein [nM]": 41}
{"residueCodes": "AGGCUCAGACGAGGAUAUGAUCAUGGCGCUUCGGCGCAUACAUGAGGAUCACCCAUGUAGGGUGAUCAGAAGGUGUCUGAGCCA [SSNG2/8-B1] (Eterna round: R96, puzzle: Same State NG 2)", "subjectOfTest": "MS2 coat protein", "apparent KD of MS2 coat protein [nM]": 92.1}

Value of apparent KD of MS2 coat protein reported for the sequence UUAAUAAUGUAAGGAUAUACAUGAGGAUUUCUCGUAGAAGGUACAGGACAUGAGGAUCACCCAUGUAUCGCUCGAAAGAGCGUA [Mat - Same State NG 1 - JL mod - D25] (Eterna round: R96, puzzle: Same State NG 1) is 521

###

Tested on: MS2 coat protein
assayComment: apparent KD of MS2 coat protein, switch ON state; designed switch direction (-1 OFF switch, 1 ON switch): 1; higher = weaker reporter binding
testParameters: FMN input: 0 or 200 uM; Eterna round: R93 (includes R88 designs)
This section presents sequences with their documented apparent KD of MS2 coat protein values.
Show the value, then the unit it is measured in.

Solved cases below.
{"residueCodes": "CAGCGCUGUCGAGAGGAUAUGCGGUGAUGGACAUGAGGAUCACCCAUGUAAGCGAUAGCAUUACGGCAGAAGGCUCUGCAGCUGC [Riaranzaes]", "apparent KD of MS2 coat protein": "18.7 nM"}
{"residueCodes": "UAUCCGGCAGUGUAGGAUAUGUUGUAGUAAACAUGAGGAUCACCCAUGUGGAUUAUAUAAGAUUCACAGAAGGGCACUGCAUUGC [Laonis]", "apparent KD of MS2 coat protein": "265 nM"}

# ---- query sequence ----
Value of apparent KD of MS2 coat protein reported for the sequence AAAAUAAAAUAAAAGGAUAUAAAAUAAAAAACAUGAGGAUCACCCAUGUAAAAACAUGGGUGAAAAAAGAAGGAAAAAUAAAAAA [SS2: 70 No MS2] is 36.7 nM

###

Test system: MS2 coat protein
assayComment: apparent KD of MS2 coat protein; designed switch direction (-1 OFF switch, 1 ON switch): -1; higher = weaker reporter binding
testParameters: input ligand: FMN 200 uM
This section presents sequences with their documented apparent KD of MS2 coat protein values.

Solved cases below.
{"residueCodes": "UUUUUAUCUGAAGGAUAUACUUAACAUGAGGAUCACCCAUGUGGUGUUGUGAGUGAGUGAGUUUAGUAGAAGGUCAAUUAUUUU [JMF's solution 19] (Eterna round: R96, puzzle: Exclusion NG 2)", "apparent KD of MS2 coat protein": "1.31 µM"}
{"residueCodes": "UAUUAGCAAGUGAGAUCCGACAUGAGGAUCACCCAUGUGCUCGUCUUAUAAGGUAAUAUGACAAAAGUCAUAUUACC [Elimod 5 - Jieux - Sensor, turn-off variant 1] (Eterna round: R97, puzzle: Sensor, turn-off variant 1)", "apparent KD of MS2 coat protein": "0.301 µM"}
{"residueCodes": "CCCAGUUACUGAGGAUAUCCUACAUGAGGAUCACCCAUGUAAUAAAUGAGGAUUUCGGGUGUCUAGGAGAAGGCAGGGAUAGGC [Ostracism 23 - Jieux - Exclusion NG 2] (Eterna round: R96, puzzle: Exclusion NG 2)", "apparent KD of MS2 coat protein": "0.0849 µM"}

# ---- query sequence ----
Value of apparent KD of MS2 coat protein reported for the sequence CUGCAACAUGAGGAUCACCCAUGUCAGGAUAUUCCAAAAUCGUCGAAAGACGAUAACAGAAGAAGGGACAGUAG [Fiskxlusion 7 - Jieux - Exclusion 1] (Eterna round: R97, puzzle: Exclusion 1) is 0.044 µM

###

System: MS2 coat protein
assayComment: apparent KD of MS2 coat protein, switch ON state; designed switch direction (-1 OFF switch, 1 ON switch): -1; higher = weaker reporter binding
testParameters: FMN input: 0 or 200 uM; Eterna round: R93 (includes R88 designs)
Think of 40 nM as a floor: if apparent KD of MS2 coat protein stands on it or above, it is criterion met; beneath it, criterion not met.

{"residueCodes": "AAAAAGUCAGGAUAUUCGGAAGGGAAAGCGCAAACCCAACCGAAGAAGGGACAUGAGGAUCACCCAUGUAAAAA [Ecls4-III]", "assignedLabel": "criterion met"}
{"residueCodes": "AAGAACGUAGGAUAUACAAAAUAAAAGAAAAGAAAGAAAGAACAUGAGGAUCACCCAUGUAGAAGGACGAAGAA [Sekhemrekhutawy Khabaw]", "assignedLabel": "criterion not met"}
{"residueCodes": "AAAAAGCGAGGAUAUACAUGAGGAUCACCCAUGUGAAAAAAAAAAAAAAAAAAAAAAAGUAGAAGGCGCAAAAA [H20 RNA]", "assignedLabel": "criterion met"}
{"residueCodes": "AAGAACCUAGGAUAUACUAAAGAAAUGAAAAGAAAUAAAGAACAUGAGGAUCACCCAUGUAGAAGGAGGAAGAA [Sewadjkare III]", "assignedLabel": "criterion met"}

Hello, I need to know if AAGAAGUGAGGAUAUCGAAGACAGACGAAAAGUCUGUCAAACGAGAAGGCACAUGAGGAUCACCCAUGUGGAAG [Mat - Exaclusion 4 - Eli mod - D79] has measured apparent KD of MS2 coat protein not below 40 nM. Thanks!
criterion not met

Hello, I need to know if AACAGGUCAGGAUAUGUGGAAAAAAUAAAAAAAAUAAAAACACAGAAGGGACAUGAGGAUCACCCAUGUAAACA [May 23] has measured apparent KD of MS2 coat protein not below 40 nM. Thanks!
criterion met

###

System: MS2 coat protein
assayComment: apparent KD of MS2 coat protein; designed switch direction (-1 OFF switch, 1 ON switch): -1; higher = weaker reporter binding
testParameters: input ligand: FMN 200 uM
This section presents sequences with their documented apparent KD of MS2 coat protein values.
The answer is to be given in µM; state only the numeric part.

{"residueCodes": "CAGUACUGAGGAUAUACAUGAGGAUCACCCAUGUGUCCCAGCUAGGAAACUAGCAAAAGUAGAAGGCAGUACUG [828 mod 2 m4] (Eterna round: R97, puzzle: Exclusion 3)", "quantity": "apparent KD of MS2 coat protein", "readoutUnits": "µM", "observedValue": 0.622}
{"residueCodes": "GAAGUUAGAGGAUAUACAUGAGGAUCACCCAUGUGUGAAGUAAACUUUGUAUGUUUAUGUAGAAGGCUAACUUC [-21.7, -19.9 kcal, 32% A] (Eterna round: R97, puzzle: Exclusion 3)", "quantity": "apparent KD of MS2 coat protein", "readoutUnits": "µM", "observedValue": 0.094}
{"residueCodes": "GCACAGGCAGGAUAUACAUGAGGAUCACCCAUGUGACCCUUGAUGUACUCGCGUACACGUAGAAGGGCCUGUGC [Omei Ex3 Model Bachelor's Dilema v41] (Eterna round: R97, puzzle: Exclusion 3)", "quantity": "apparent KD of MS2 coat protein", "readoutUnits": "µM", "observedValue": 0.633}
{"residueCodes": "CCUAUGUUAGGAUAUUGCUCUCAGCCGUAGGAGGACAUGACCGAGAAGGAACAUGAGGAUCACCCAUGUGUAUU [Eternabot (L2) Solution 53] (Eterna round: R97, puzzle: Exclusion 4)", "quantity": "apparent KD of MS2 coat protein", "readoutUnits": "µM", "observedValue": 0.0174}
{"residueCodes": "AUAAUGUAAGGAUAUCAGUCGUACAGCUUCGGCUGUACGACUGAGAAGGUACAUGAGGAUCACCCAUGUGGUCA [E4/9-A1] (Eterna round: R97, puzzle: Exclusion 4)", "quantity": "apparent KD of MS2 coat protein", "readoutUnits": "µM", "observedValue": 0.0522}

Value of apparent KD of MS2 coat protein reported for the sequence AGAGUACUGCGAGGAUAUACAUGAGGAUCACCCAUGUGGUGGUGUGAGGCUUUGCCUCACACCAUGUAGAAGGCGCAGUACUCA [Mat - Exclusion NG 2 - Mod of JL - D19] (Eterna round: R96, puzzle: Exclusion NG 2) is 0.257

Value of apparent KD of MS2 coat protein reported for the sequence AUUAAAUAAGGAUAUACAUGAGGAUCACCCAUGUGUAGCAAGGUGUUGCGAUCCGCAAGUAGAAGGUGUAUAAU [Eternabot (L2) Solution 2] (Eterna round: R97, puzzle: Exclusion 3) is 0.0496

Value of apparent KD of MS2 coat protein reported for the sequence UCCGUGUCAGGAUAUGCUAGCGCAAAGUUGCCCGCGCUGUAGCAGAAGGGACAUGAGGAUCACCCAUGUCUACA [Exclusion 4 (Mod of Nando's EX4 C.10 cleaner dot)] (Eterna round: R97, puzzle: Exclusion 4) is 0.0707

Value of apparent KD of MS2 coat protein reported for the sequence GGUACUCAAAGAGUACCAAUACGAACAUGAGGAUCACCCAUGUAGGAUAUGCUACUCAAAGAGUAGCAGAAGGACAUGAACCCU [Far Half Aptamer v7] (Eterna round: R96, puzzle: Exclusion NG 3) is 0.571

Value of apparent KD of MS2 coat protein reported for the sequence AUUAGAUGAGGAUAUACAUGGUUGCGGGUGCGGCAGGAUCUACAUGAGGAUCACCCAUGUAGAAGGCAUGUAUC [EX2 C.22] (Eterna round: R97, puzzle: Exclusion 2) is 0.0163

Value of apparent KD of MS2 coat protein reported for the sequence UUUUGCACGCUGCGGUCCUACAUGAGGAUCACCCAUGUGGUCUGGUGGCGUGGGUCGCCGGACUUGGCUCGUCUUGU [salish99_S_TOV1_R5_036] (Eterna round: R97, puzzle: Sensor, turn-off variant 1) is 0.019

Value of apparent KD of MS2 coat protein reported for the sequence GGGUGCAGGCUGCGGUCCUACAUGAGGAUCACCCAUGUGGUCCGGUGGCGUGGGUCGCCGGACUUGGCUCGUCUUGU [salish99_S_TOV1_R5_014] (Eterna round: R97, puzzle: Sensor, turn-off variant 1) is 0.0912

Value of apparent KD of MS2 coat protein reported for the sequence UGCAGACGAGGAUAUGAUUAAUAAUACAUGAGGAUCACCCAUGUAAUACUGAUCUAUGGAUCAGAAGGUGUCUGCU [E5/6-B3] (Eterna round: R97, puzzle: Exclusion 5) is 0.0208

Value of apparent KD of MS2 coat protein reported for the sequence AAACCCUGAGGAUAUACAUAACAACAAAGCCUCACAUGCCAACAUGAGGAUCACCCAUGUAGAAGGCAGGCCAA [Mod R3 Insanara 13 - Jieux - Exclusion 2] (Eterna round: R97, puzzle: Exclusion 2) is 0.0192

Value of apparent KD of MS2 coat protein reported for the sequence GCCAUGGGAGGAUAUACGUCAUAGGUUACCUCACGCUGGCGACAUGAGGAUCACCCAUGUAGAAGGCUCAGAUG [Eternabot (L2) Solution 12] (Eterna round: R97, puzzle: Exclusion 2) is 0.101

Value of apparent KD of MS2 coat protein reported for the sequence UCGGGAAGAGGAUAUACAUAGAAAUAGAUUCAUGUAAAACUACAUGAGGAUCACCCAUGUAGAAGGCUUUCCGU [Mat - Exclusion 2 - JL Mod - D55] (Eterna round: R97, puzzle: Exclusion 2) is 0.146

Value of apparent KD of MS2 coat protein reported for the sequence UCUAGUUGGCAAGGAUAUCCUACAUUGUUCUGGCCCGGGCAUGCUACAUGAGGAUCACCCAUGUGGGAGAAGGUGCGUCAUUGC [Design 22] (Eterna round: R96, puzzle: Exclusion NG 2) is 0.0709

Value of apparent KD of MS2 coat protein reported for the sequence CUUGUAUAUCAGGAUAUGAUUUUAUAUAUUGGAUCAGAAGGGAUAACAUGAGGAUCACCCAUGUUGUGGAGUGA [JR_Ex6_Sub038] (Eterna round: R97, puzzle: Exclusion 6) is 0.0905

Recorded values, source the supplement of paper PMC9170038.
